From: ChEMBL document CHEMBL1201862

tested on: MDA-MB-435; assay: NCI tumour cell line growth inhibition, 48 h
Calls of active or inactive are those of the source. Cut-off read from the data, not from the text of the source: active = GI50 up to about 1.1 µM and inactive = higher.
The entries below come with measured GI50 values attached.
assay readout: GI50

molecule | study target | assay readout | result
CC1(C)Oc2ccc3c(=O)cc(-c4ccccc4)oc3c2C1C(=O)O (stereo unspecified) | MDA-MB-435 | GI50 | > 100 µM (inactive)
C=C1c2nc3ccccc3n2C=C(c2ccccc2)N1c1ccc(Cl)cc1 | MDA-MB-435 | GI50 | > 82.8 µM (inactive)
Cc1ccc2cccc3c2c1CC1(C3=O)S(=O)(=O)OCCOS1(=O)=O | MDA-MB-435 | GI50 | > 100 µM (inactive)
C1CSCCCSCCCSCCCSCCCSC1 | MDA-MB-435 | GI50 | 41.9 µM (inactive)
O=C(O)C(Cc1ccc(O)cn1)NC(=O)C(F)(F)F (stereo unspecified) | MDA-MB-435 | GI50 | > 100 µM (inactive)
Cc1cccc2sc(NC(=O)NS(=O)(=O)n3cnc4ccccc43)nc12 | MDA-MB-435 | GI50 | 27.9 µM (inactive)
